The values you see were collected from patent US11498928B2.

# Test system: NCI-H929 cells
# protocolText: Cell viability assay (NCI-H929 cells), CCK-8
# Type: cell-based
# assaySetup: Homo sapiens, NCI-H929, 24 h, 5% FBS
measurementType: IC50 (µM)

Examples with answers:
If you can, please state the reported IC50 value of "CCO[C@@]1(CN2CCN3CCOC[C@@H]3C2)C2=C[C@@H](C2)[C@H](C)[C@@H](C)S(=O)(=O)NC(=O)c2ccc3c(c2)N(C[C@@H]2CC[C@H]21)C[C@@]1(CCCc2c1ccc(Cl)c2F)CO3" .
0.017

Check "C[C@@H]1[C@@H](C)S(=O)(=O)NC(=O)c2ccc3c(c2)N(C[C@@H]2CC[C@H]2[C@@H](OCCN2C[C@@H](C)N[C@@H](C)C2)C2=C[C@H]1C2)C[C@@]1(CCCc2c1ccc(Cl)c2F)CO3" too.
0.22

Check "COC1CCN(CCO[C@H]2C3=C[C@@H](C3)[C@H](C)[C@@H](C)S(=O)(=O)NC(=O)c3ccc4c(c3)N(C[C@@H]3CC[C@H]32)C[C@@]2(CCCc3c2ccc(Cl)c3F)CO4)CC1" too.
0.051

Check "C[C@@H]1[C@@H](C)S(=O)(=O)NC(=O)c2ccc3c(c2)N(C[C@@H]2CC[C@H]2[C@@H](OCc2nccn2C)C2=C[C@H]1C2)C[C@@]1(CCCc2c1ccc(Cl)c2F)CO3" too.
0.098

Check "CO[C@@]1(CN2CCN3CCOC[C@H]3C2)C2=C[C@@H](C2)[C@H](C)[C@@H](C)S(=O)(=O)NC(=O)c2ccc3c(c2)N(C[C@@H]2CC[C@H]21)C[C@@]1(CCCc2c1ccc(Cl)c2F)CO3" too.
0.016

Check "CO[C@H]1C2=C[C@@H](C2)[C@H](C)[C@@H](C)S(=O)(=O)NC(=O)c2ccc3c(c2)N(C[C@@H]2CC[C@H]21)C[C@@]1(CCCc2c1cc(F)c(Cl)c2F)CO3" too.
3.4

Check "CO[C@@]1(CN2CCN(C3COC3)CC2)C2=C[C@@H](C2)[C@H](C)[C@@H](C)S(=O)(=O)NC(=O)c2ccc3c(c2)N(C[C@@H]2CC[C@H]21)C[C@@]1(CCCc2c1ccc(Cl)c2F)CO3" too.
0.011

Check "CO[C@H]1C2CC(CCS(=O)(=O)NC(=O)c3ccc4c(c3)N(C[C@@H]3CC[C@H]31)C[C@@]1(CCCc3cc(Cl)ccc31)CO4)C2" too.
0.00604

P. C[C@@H]1[C@@H](C)S(=O)(=O)NC(=O)c2ccc3c(c2)N(C[C@@H]2CC[C@H]2[C@@H](OCc2ncccn2)C2=C[C@H]1C2)C[C@@]1(CCCc2c1ccc(Cl)c2F)CO3
Q. CO[C@H]1/C=C/C[C@H](C)[C@@H](C)S(=O)(=O)NC(=O)c2ccc3c(c2)N(C[C@@H]2CC[C@H]21)C[C@@]1(CCCc2cc(Cl)ccc21)CO3 [AMG-176, reference compound]
Form: Entry with minimum IC50 (choose one): P / Q State your choice using its label.
P
(P: 0.0093 µM, Q: 0.138 µM)
